- tested_target: KRAS G12D (Homo sapiens, UniProt P01116, G12D)
- Sequence (P01116 1-188 isoform P01116-2 G12D): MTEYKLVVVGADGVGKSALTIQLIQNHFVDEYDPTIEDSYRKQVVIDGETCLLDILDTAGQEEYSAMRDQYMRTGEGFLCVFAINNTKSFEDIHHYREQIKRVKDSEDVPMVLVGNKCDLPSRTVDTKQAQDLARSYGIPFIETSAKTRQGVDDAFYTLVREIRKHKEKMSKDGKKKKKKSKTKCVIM
- test_details: GDP-GTP exchange assay (bodipy-GDP/GppNHp, SOS1), KRAS G12D
- particulars: bodipy-loaded KRAS G12D 2.5 nM, 4 hours pre-incubation with inhibitor, 2 hours after GppNHp/SOS1; read-out: G12D_exchange IC50
pIC50: −log10 of the molar value.
Kindly supply the reported pIC50 values for the records listed here.

Q: Notebook entry, KRAS G12D (Homo sapiens, UniProt P01116, G12D) assay: pIC50 of CCc1nc2c(-c3ncco3)nc3c(F)c(-c4cc(O)cc5ccccc45)c(CCC#N)cc3c2n1C1C2CNC1C2 (single isomer, unassigned) [Example 20a] = ?
Result: ≥ 7.00

Q: Also "C[C@H](Oc1nc2c(F)c(-c3cccc4cccc(C#N)c34)c(Cl)cc2c2c1ncn2[C@H]1CCN(C(=O)C2CC2)[C@H](CC#N)C1)[C@@H]1CCCN1C" ?
Result: ≥ 7.00

Q: Also "C[C@H](Oc1nc2c(F)c(-c3cccc4cccc(C#N)c34)c(Cl)cc2c2c1ncn2[C@H]1CCN(C(N)=O)[C@H](CC#N)C1)[C@@H]1CCCN1C" ?
Result: ≥ 7.00

Q: Also CN(C)C(=O)CCc1nc2c(N3CC(N(C)C)C3)nc3c(F)c(-c4cc(O)cc5ccccc45)cc(CN4CCC(C#N)C4)c3c2n1C1C2CNC1C2 (centres unmarked) ?
Result: 6.00 to 7.00

Q: Also CN(C)C(=O)CCc1nc2c(N3CC(N(C)C)C3)nc3c(F)c(-c4cccc5c4CC(F)(F)CC5)c(CCC#N)cc3c2n1[C@@H]1[C@@H]2CN[C@H]1C2 (relative stereo) ?
Result: ≥ 7.00

Q: Also CN(C)C(=O)CCc1nc2c(N3CC(N(C)C)C3)nc3c(F)c(-c4nc(N)cc5ccccc45)c(CCC#N)cc3c2n1C1C2CNC1C2 (single isomer, unassigned) [Example 31a] ?
Result: 6.00 to 7.00

Q: Also "C[C@H](Oc1nc2c(F)c(-c3cccc4cccc(C#N)c34)c(Cl)cc2c2c1ncn2[C@H]1CCN(C(=O)CC#N)[C@H](CC#N)C1)[C@@H]1CCCN1C" ?
Result: ≥ 7.00

Q: Also CN(C)C1CN(c2nc3c(F)c(-c4cc(O)cc5ccccc45)c(CCC#N)cc3c3c2nc(-c2cn(C4CCNCC4)nn2)n3C2C3CNC2C3)C1 (single isomer, unassigned) [Example 26a] ?
Result: ≥ 7.00

Q: Also CN(C)C1CN(c2nc3c(F)c(-c4cc(O)cc5ccccc45)c(CCC#N)cc3c3c2nc(-c2ccc4[nH]ncc4c2)n3C2C3CNC2C3)C1 (single isomer, unassigned) [Example 38a] ?
Result: 6.00 to 7.00

Q: Also CCc1nc2c(N3CC(N(C)C)C3)nc3c(F)c(-c4cc(O)cc5ccccc45)c(C(CC#N)n4cccn4)cc3c2n1C1C2CNC1C2 (single isomer, unassigned) ?
Result: ≥ 7.00

Q: Also CN(C)C1CN(c2nc3c(F)c(-c4cc(O)cc5ccccc45)c(CCC#N)cc3c3c2nc(C2CC2)n3C2C3CNC2C3)C1 (single isomer, unassigned) [Example 25a] ?
Result: ≥ 7.00

Q: Also CN(C)C(=O)CCc1nc2c(N3CC(N(C)C)C3)nc3c(F)c(-c4nc(N)ccc4C(F)(F)F)c(CCC#N)cc3c2n1C1C2CNC1C2 (single isomer, unassigned) [Example 32a] ?
Result: 6.00 to 7.00

Q: Also CCc1nc2c(N3CC(N(C)C)C3)nc3c(F)c(-c4cc(O)cc5ccccc45)c(-c4cnco4)cc3c2n1C1C2CNC1C2 (single isomer, unassigned) ?
Result: 6.00 to 7.00

Q: Also CN(C)C1CN(c2nc3c(F)c(-c4cc(O)cc5ccccc45)c(CCC#N)cc3c3c2nc(CCc2ncccn2)n3C2C3CNC2C3)C1 (single isomer, unassigned) ?
Result: ≥ 7.00

Q: Also CN(C)C(=O)CCc1nc2c(N3CC(N(C)C)C3)nc3c(F)c(-c4cc(O)cc(Cl)c4C4CC4)ccc3c2n1C1C2CNC1C2 (centres unmarked) ?
Result: ≥ 7.00

Q: Also CC(=O)N1CCN(C(=O)CCc2nc3c(N4CC(N(C)C)C4)nc4c(F)c(-c5cc(O)cc6ccccc56)c(CCC#N)cc4c3n2C2C3CNC2C3)CC1 (single isomer, unassigned) ?
Result: ≥ 7.00

Q: Also CCc1nc2c(-c3ccnc(N4CCN(C)CC4)c3)nc3c(F)c(-c4cc(O)cc5ccccc45)c(CCC#N)cc3c2n1C1C2CNC1C2 (single isomer, unassigned) [Example 22a] ?
Result: ≥ 7.00

Source: patent US12600717B2
